Molecular target: periostin (Homo sapiens) (UniProt Q15063)
Sequence: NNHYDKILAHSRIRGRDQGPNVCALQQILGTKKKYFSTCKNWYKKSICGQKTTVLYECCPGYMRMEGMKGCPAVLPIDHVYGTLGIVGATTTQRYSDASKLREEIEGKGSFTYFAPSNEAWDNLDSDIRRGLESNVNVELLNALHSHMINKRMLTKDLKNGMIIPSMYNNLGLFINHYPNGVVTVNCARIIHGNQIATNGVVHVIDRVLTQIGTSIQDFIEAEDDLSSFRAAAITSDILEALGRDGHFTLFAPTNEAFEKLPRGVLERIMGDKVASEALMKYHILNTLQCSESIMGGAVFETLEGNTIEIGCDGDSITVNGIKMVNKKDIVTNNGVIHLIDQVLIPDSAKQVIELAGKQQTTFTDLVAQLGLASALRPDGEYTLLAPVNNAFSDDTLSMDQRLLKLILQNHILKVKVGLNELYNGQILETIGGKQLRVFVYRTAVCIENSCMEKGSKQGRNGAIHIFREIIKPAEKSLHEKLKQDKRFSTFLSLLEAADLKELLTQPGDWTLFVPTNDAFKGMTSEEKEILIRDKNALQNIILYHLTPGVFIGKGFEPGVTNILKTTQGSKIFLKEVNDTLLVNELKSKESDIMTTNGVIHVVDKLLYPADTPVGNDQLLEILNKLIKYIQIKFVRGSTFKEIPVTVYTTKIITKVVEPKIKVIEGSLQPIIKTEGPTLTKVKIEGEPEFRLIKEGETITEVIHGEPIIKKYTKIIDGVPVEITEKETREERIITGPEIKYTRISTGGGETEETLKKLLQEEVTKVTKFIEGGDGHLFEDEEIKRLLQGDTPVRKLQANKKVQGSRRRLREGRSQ
Assay: filter
Settings: BndU at all n of the core [BndU at 20,22,25,28,29,32,34,36,37,41,44,46,49,50,54,56,59]; Bmax 80%; same buffer, 37 C
quantity name: Kd (nM)
One number for each entry, in nM.

## Input State Kd (periostin (Homo sapiens) (UniProt Q15063)) of GATGTGAGTGTGTGACGAGTCTGGTCCTTCCTGTATTAGATCATATCCTTAGGTATCGTCAACAACAGAACAAGGAAAGG [clone 1 full length] .
## Output 0.6

* * *

Target: periostin (Homo sapiens)
Sequence: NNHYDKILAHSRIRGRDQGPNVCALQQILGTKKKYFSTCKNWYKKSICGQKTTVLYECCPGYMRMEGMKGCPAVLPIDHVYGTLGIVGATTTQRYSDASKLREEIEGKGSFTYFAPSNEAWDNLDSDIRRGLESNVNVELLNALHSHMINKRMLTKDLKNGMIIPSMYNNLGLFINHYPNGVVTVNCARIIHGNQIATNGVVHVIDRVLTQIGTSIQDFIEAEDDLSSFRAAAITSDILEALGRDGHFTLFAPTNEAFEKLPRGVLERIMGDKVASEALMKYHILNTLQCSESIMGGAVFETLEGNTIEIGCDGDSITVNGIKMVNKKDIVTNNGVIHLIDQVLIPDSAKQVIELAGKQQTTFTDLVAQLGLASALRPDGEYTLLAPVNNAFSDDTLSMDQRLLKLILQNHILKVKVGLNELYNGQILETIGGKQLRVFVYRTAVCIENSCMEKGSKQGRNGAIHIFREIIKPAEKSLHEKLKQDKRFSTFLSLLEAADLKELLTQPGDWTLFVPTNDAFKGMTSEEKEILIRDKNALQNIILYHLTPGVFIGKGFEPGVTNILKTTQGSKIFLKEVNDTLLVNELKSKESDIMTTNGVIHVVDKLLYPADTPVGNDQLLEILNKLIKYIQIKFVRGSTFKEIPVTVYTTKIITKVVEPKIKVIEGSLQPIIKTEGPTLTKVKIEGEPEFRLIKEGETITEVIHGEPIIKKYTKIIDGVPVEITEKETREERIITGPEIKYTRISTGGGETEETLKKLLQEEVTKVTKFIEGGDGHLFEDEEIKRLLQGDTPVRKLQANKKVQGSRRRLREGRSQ
Assay: filter
Conditions: BndU at all n of the core [BndU at 20,22,25,28,29,32,33,34,41,43,44,46,47,48,51,53]; Bmax 80%; same buffer, 37 C
quantity name: pKd
One number for each entry, as −log10 of the molar value.

## Input Entry GATGTGAGTGTGTGACGAGTCTGGTCCTTCCTTTGACGACTATTGTTTGGTATCGGACAACAACAACAGAACAAGGAAAGG [clone 5 full length] needs its pKd filled in; supply it.
## Output 8.85

* * *

Target: periostin (Homo sapiens) (UniProt Q15063)
Sequence: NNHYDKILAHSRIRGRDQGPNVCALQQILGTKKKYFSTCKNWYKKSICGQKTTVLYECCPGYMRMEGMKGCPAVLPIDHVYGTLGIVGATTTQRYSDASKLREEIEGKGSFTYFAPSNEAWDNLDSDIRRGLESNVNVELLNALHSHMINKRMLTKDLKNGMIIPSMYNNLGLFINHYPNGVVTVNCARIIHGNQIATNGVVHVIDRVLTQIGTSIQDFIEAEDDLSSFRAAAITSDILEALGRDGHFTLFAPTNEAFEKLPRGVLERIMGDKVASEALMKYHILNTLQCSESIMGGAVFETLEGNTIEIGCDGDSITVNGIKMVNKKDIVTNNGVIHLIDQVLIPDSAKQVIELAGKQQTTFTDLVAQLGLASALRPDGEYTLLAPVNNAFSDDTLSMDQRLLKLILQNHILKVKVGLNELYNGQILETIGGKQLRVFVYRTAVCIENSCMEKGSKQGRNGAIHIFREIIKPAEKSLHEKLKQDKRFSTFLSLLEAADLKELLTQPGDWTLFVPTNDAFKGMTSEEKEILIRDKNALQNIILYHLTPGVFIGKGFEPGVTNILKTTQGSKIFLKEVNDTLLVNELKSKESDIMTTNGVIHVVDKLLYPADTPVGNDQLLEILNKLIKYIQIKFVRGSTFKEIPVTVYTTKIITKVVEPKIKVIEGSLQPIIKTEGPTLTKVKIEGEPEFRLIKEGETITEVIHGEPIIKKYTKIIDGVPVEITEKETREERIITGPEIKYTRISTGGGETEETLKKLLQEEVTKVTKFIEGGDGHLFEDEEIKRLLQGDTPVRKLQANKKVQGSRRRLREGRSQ
Assay: filter
Conditions: BndU at all n of the core [BndU at 20,22,25,28,29,32,36,39,40,43,45,46,51,53,58]; Bmax 78%; same buffer, 37 C
quantity name: pKd
One number for each entry, as −log10 of the molar value.

## Input Return pKd (reported value) for this sequence: GATGTGAGTGTGTGACGAGTCTGGTCCTTCCTCCCTAATTGCTGTTGAGGTATCGGCTACAACAACAGAACAAGGAAAGG [clone 17 full length]
## Output 9.20
